Assay: PK study, intravenous and oral administration, plasma LC-MS/MS
Assay type: in vivo
Condition info: both sexes, 5 mg/kg, oral administration of 5 mpk, species not given (ICR mice or SD Rat), read-out: half-life (t1/2) (converted)
Result type: half-life

# annotated cases, reported half-life shown
- Compound: "Cn1c(CN2Cc3ccccc3C2)c(F)cc(CCC2CCN(S(C)(=O)=O)CC2)c1=O"
  Meas value: "> 3 h"
- Compound: "CS(=O)(=O)N1CCC(COc2coc(CN3Cc4ccccc4C3)cc2=O)CC1 [ODM-208, reference compound]"
  Meas value: "1.8 h"

Input: # get_value(readout='half-life', item= COc1cc(CN2Cc3ccccc3C2)ccc1CCC1CCN(S(C)(=O)=O)CC1 )
Output: > 3 h

* * *

# key: entry, value: pIC50
Test target: CYP11A1 (Homo sapiens, UniProt P05108)
Construct: host or cells: NCI-H295R
Assay: NCI-H295R cellular pregnenolone biosynthesis inhibition assay (ELISA method)
Format: cell-based
Condition info: NCI-H295R cells, 3 days incubation, pregnenolone in cell supernatant by ELISA; read-out: IC50
pIC50: −log10 of the molar value.

In the examples that follow, each entry is paired with its recorded pIC50.
- Compound: "Cn1c(CN2Cc3ccccc3C2)c(F)cc(C=CC2CCN(C(=O)CC#N)CC2)c1=O [compound 112]"
  pIC50: "> 7.00"
- Compound: "COc1cc(CN2Cc3ccccc3C2)c(F)cc1CCC1CCN(S(C)(=O)=O)CC1 [compound 41]"
  pIC50: "6.52 to 7.00"
- Compound: "COc1cc(CN2Cc3ccccc3C2)ccc1CCC1CCN(S(C)(=O)=O)CC1 [compound 53]"
  pIC50: "> 7.00"
- Compound: "COc1cc(CN2Cc3ccccc3C2)ccc1CCC1CCS(=O)(=O)CC1 [compound 88]"
  pIC50: "< 6.52"
- Compound: "Cn1c(CN2Cc3ccc(F)cc3C2)c(F)cc(CCC2CCN(S(C)(=O)=O)CC2)c1=O [compound 101]"
  pIC50: "< 6.52"

Input: Query: pIC50; subject: CS(=O)(=O)N1CCC(CCn2ccc(CN3Cc4ccccc4C3)cc2=O)CC1 [compound 5]
Output: < 6.52

Input: Query [2H]C([2H])([2H])n1c(CN2Cc3ccccc3C2)c(F)cc(CCC2CCN(S(C)(=O)=O)CC2)c1=O [compound 106] next
Output: > 7.00

* * *

Test target: CYP11A1 (Homo sapiens, UniProt P05108)
Construct: host or cells: NCI-H295R
Sequence (P05108 40-521): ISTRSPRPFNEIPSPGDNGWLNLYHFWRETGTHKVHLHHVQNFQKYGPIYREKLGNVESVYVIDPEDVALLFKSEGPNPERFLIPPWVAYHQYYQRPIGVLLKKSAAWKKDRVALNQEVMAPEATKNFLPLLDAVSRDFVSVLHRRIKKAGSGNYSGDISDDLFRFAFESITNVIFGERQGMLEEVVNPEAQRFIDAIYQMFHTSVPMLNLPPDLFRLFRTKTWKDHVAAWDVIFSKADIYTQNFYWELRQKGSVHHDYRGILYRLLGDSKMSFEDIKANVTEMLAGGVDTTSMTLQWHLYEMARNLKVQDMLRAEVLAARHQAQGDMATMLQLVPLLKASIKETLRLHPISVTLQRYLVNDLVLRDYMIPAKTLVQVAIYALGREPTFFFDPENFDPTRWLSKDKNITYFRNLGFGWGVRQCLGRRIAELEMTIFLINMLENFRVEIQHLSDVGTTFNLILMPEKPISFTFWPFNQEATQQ
Assay: NCI-H295R cellular pregnenolone biosynthesis inhibition assay (ELISA method)
Type: cell-based
Condition info: NCI-H295R cells, 3 days incubation, pregnenolone in cell supernatant by ELISA; read-out: IC50
Result type: IC50

# count of solved cases: 6
- Compound: "CCC(C)Oc1cc(CN2Cc3ccccc3C2)c(F)cc1OCC1CCN(S(C)(=O)=O)CC1 (centres unmarked)"
  IC50: "< 0.1 µM"
- Compound: "COc1cc(CN2Cc3cccnc3C2)ccc1CCC1CCN(S(C)(=O)=O)CC1"
  IC50: "0.1 to 0.3 µM"
- Compound: "CS(=O)(=O)N1CCC(COc2ccc(CN3Cc4ccccc4C3)cc2F)CC1"
  IC50: "< 0.1 µM"
- Compound: "CS(=O)(=O)N1CCC(CN2CCOc3cc(CN4Cc5ccccc5C4)ccc32)CC1"
  IC50: "> 0.3 µM"
- Compound: "CS(=O)(=O)N1CCC(COc2ccc(CN3Cc4ccccc4C3)cc2Br)CC1"
  IC50: "< 0.1 µM"
- Compound: "CCn1c(CN2Cc3ccccc3C2)c(F)cc(CCC2CCN(S(C)(=O)=O)CC2)c1=O"
  IC50: "< 0.1 µM"

Input: State the recorded IC50 for this entry: COC(=O)N1CCC(CCc2ccc(CN3Cc4ccccc4C3)cc2OC)CC1
Output: < 0.1 µM

Input: Further, for Cn1c(CN2Cc3ccccc3C2)ccc(CCC2CCN(S(C)(=O)=O)CC2)c1=O ?
Output: < 0.1 µM

Input: Further, for COc1cc(CN2Cc3ccccc3C2)ccc1CCN1CCN(S(C)(=O)=O)CC1 ?
Output: 0.1 to 0.3 µM

Input: Also check COc1cc(OCC2CCN(S(C)(=O)=O)CC2)c(F)cc1CN1Cc2ccccc2C1
Output: > 0.3 µM

* * *

Test target: CYP11A1 (Homo sapiens)
Construct: host or cells: NCI-H295R
Sequence (P05108 40-521): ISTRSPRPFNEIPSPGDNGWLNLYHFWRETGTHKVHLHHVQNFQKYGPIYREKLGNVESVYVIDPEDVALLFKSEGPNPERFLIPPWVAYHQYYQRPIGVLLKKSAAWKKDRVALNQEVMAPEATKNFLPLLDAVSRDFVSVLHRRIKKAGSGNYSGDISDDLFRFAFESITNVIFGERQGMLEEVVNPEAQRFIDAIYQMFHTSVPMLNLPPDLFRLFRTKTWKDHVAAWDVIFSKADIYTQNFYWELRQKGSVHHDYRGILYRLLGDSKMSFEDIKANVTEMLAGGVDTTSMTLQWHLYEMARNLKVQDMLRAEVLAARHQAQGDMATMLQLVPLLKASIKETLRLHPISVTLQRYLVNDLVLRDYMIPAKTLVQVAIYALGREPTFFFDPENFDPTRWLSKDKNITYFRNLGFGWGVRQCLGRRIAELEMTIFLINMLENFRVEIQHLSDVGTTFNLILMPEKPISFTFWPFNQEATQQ
Assay: NCI-H295R cellular pregnenolone biosynthesis inhibition assay (ELISA method)
Type: cell-based
Condition info: IC50, NCI-H295R cells, 3 days incubation, pregnenolone in cell supernatant by ELISA
Result type: IC50

Input: Return reported IC50; argument: CS(=O)(=O)N1CCC(COc2cc(F)c(CN3Cc4ccccc4C3)cc2C#N)CC1 [compound 30]
Output: < 100 nM

* * *

Test target: CYP11A1 (Homo sapiens)
Construct: host or cells: NCI-H295R
Sequence (P05108 40-521): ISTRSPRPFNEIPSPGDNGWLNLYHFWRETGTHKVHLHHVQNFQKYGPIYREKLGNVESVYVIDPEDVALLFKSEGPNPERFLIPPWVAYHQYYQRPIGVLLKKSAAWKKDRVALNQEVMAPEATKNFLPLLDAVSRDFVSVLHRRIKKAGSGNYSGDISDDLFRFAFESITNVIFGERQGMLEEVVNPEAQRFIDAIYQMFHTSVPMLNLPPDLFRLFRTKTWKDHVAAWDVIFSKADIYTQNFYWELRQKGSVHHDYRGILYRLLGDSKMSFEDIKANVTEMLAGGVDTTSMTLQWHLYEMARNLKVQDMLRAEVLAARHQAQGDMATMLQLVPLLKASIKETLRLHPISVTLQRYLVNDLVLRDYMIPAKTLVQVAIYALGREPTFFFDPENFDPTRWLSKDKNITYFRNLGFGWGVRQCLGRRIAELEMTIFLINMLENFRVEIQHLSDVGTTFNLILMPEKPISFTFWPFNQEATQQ
Assay: NCI-H295R cellular pregnenolone biosynthesis inhibition assay (ELISA method)
Assay type: cell-based
Condition info: NCI-H295R cells, 3 days incubation, pregnenolone in cell supernatant by ELISA; read-out: IC50
Attribute: IC50

A selection of reference data follows.
- Molecule: "Cc1cc(CN2Cc3ccccc3C2)ccc1OCC1CCN(S(C)(=O)=O)CC1 [compound 11]"
  Meas value: "< 100 nM"
- Molecule: "[2H]C([2H])(c1c(F)cc(CCC2CCN(C(=O)OC(C)(C)C)CC2)c(=O)n1C)N1Cc2ccccc2C1 [compound 121]"
  Meas value: "< 100 nM"
- Molecule: "Cn1c(CN2Cc3ccccc3C2)c(F)cc(-c2cnc3c(c2)CCN(S(C)(=O)=O)C3)c1=O [compound 126]"
  Meas value: "< 100 nM"
- Molecule: "COc1cc(CN2Cc3ccccc3C2)ccc1CCC1CCN(C(=O)C(C)(C)C)CC1 [compound 81]"
  Meas value: "< 100 nM"
- Molecule: "CS(=O)(=O)N1CCC(CCc2ccc(CN3Cc4ccccc4C3)cc2F)CC1 [compound 40]"
  Meas value: "< 100 nM"

Input: Suppose we examine the molecule Cn1c(CN2Cc3ccccc3C2)c(F)cc(C=CC2CCN(C(=O)OC(C)(C)C)CC2)c1=O [compound 103] ; what IC50 value has been reported?
Output: 100 to 300 nM

Input: # iterate: Cn1c(CN2Cc3ccccc3C2)c(F)cc(C(F)=CC2CCN(S(C)(=O)=O)CC2)c1=O [compound 123]
Output: < 100 nM

Input: Then what about the molecule C=CCOc1cc(CN2Cc3ccccc3C2)ccc1OCC1CCN(S(C)(=O)=O)CC1 [compound 29] ?
Output: < 100 nM

Input: Then COc1cc(CN2Cc3ccccc3C2)ccc1CCC1(O)CCN(S(C)(=O)=O)CC1 [compound 92] ?
Output: 100 to 300 nM

Input: And for CS(=O)(=O)N1CCC(COc2c(F)cc(CN3Cc4ccccc4C3)cc2Br)CC1 [compound 34] ?
Output: < 100 nM

These entries and their values trace back to patent EP4775570A1.
